Molecular target: T1, UNK ZnF1-3 (human, UniProt Q9C0B0 31-174)
T1 sequence: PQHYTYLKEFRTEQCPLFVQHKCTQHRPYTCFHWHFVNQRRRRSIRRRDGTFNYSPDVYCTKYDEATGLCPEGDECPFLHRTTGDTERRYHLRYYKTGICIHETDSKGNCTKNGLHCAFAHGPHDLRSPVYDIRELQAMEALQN
Test: nsRBNS (natural sequence RNA bind-n-seq); RBNS binding buffer (assumed for nsRBNS): 25 mM Tris pH 7.5, 150 mM KCl, 3 mM MgCl2, 0.01% Triton X-100, 500 ug/ml BSA, 20 U/ml SUPERase-In, 4 C; UNK is unkempt and MSI1 is Musashi-1; names of the RNAs are library labels; protein concentration not given here; high values mean tight binding
The full ranking holds about 24,000 sequences; the median of “enrichment r” is about 0.99, and the highest 2% start at about 3.7. This excerpt belongs to a sample that is enriched for the highest values.
measurement.kind: binding signal (enrichment R)
Give just the number in enrichment R; leave the unit off.

get_value(item= chr13:100194382:100194383:-_ENSMUSG00000052727_ENSMUST00000064762|mus_hu|FALSE|FALSE (ssRNA) RNA: GGGAGUUCUACAGUCCGACGAUCUCCUGUAAAUGAAAACAUUUGUUAAAAAGUUCAUCUAUGAAAAGUUCUCACAUAUCUUAAAAAAAAAAUUCUUCUGUACACUUGUUCCCAUAAUUAUGUUGAAAUUAAUGGAAAAUUUAACAACAGAGGAUUGAGCAUCA , readout=binding signal) returns 1.06

get_value(item= chr13:100194382:100194383:-_ENSMUSG00000052727_ENSMUST00000064762|mus_mus|FALSE|FALSE (ssRNA) RNA: GGGAGUUCUACAGUCCGACGAUCUCCUGUAAAUGAAAACAUUUGUUAAAAAGUUCAUCUAUGAAAAGUUCUCGAGUAGCUAAAAAAAAAAAAAAAAAAAAAAAAAAUCUUCUGUACAUGUGUUCCCAUGUGUUGAAAUUAAUGCAACAGAGGAUUGAGCAUCA , readout=binding signal) returns 5.73

get_value(item= chr11:4127340:4127341:+_ENSG00000167325_ENST00000300738|hu_mus|hu_hu_hu_mus_False|28_38 (ssRNA) RNA: GGGAGUUCUACAGUCCGACGAUCGGCAUAGUCAGGGUGCUUCGUGGUCAAGGUCGCGGCUGUCUCAGCAGCCAGGGUGUCCAGUUCCACUGUGGUGACCCCACUGUACAAGCCUUGGAUUACUUUCAUGGUGAUCUGAGCAGGCAACAGAGGAUUGAGCAUCA , readout=binding signal) returns 1.08

Attribution: paper PMC12136788
